Tested system: human MCH-1R (human, UniProt Q99705 1-353)
Sequence (Q99705 whole entry): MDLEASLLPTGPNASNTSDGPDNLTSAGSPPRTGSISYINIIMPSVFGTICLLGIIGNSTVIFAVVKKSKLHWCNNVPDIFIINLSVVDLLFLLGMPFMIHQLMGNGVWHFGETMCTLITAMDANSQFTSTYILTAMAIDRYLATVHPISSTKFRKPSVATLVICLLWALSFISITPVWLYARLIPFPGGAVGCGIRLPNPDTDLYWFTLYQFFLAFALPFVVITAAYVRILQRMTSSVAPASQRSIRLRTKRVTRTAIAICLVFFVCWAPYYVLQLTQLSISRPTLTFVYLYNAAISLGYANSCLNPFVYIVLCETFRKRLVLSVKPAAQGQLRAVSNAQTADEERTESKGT
Test summary: cell-based or functional assay
Positions of bridges follow the written chain, without caps; N, C: chain ends. No end group written: not given here.
Readout label: Activation %, aequorin bioluminescence
Could you kindly put the unit after your number?

XCMLGRVYRPC (not fully specified; N-terminal acetyl; D-Glu at position 6; C-terminal amide; disulfide cycle) [SEQ. ID. NO. 12 (Ac-D-Glu^6 analog of Ac-hMCH(6-16)-NH2)] : 100%

-- ask Provide Activation %, aequorin bioluminescence value for the following binder: XCMLGRVYRPC (position 6 is Gva, des-amino-arginine (5-guanidinovaleric acid), no acetyl; C-terminal amide; disulfide cycle) [SEQ. ID. NO. 3 (Gva^6 analog of Ac-hMCH(6-16)-NH2)]
-- reply 49%

-- ask Provide Activation %, aequorin bioluminescence value for the following binder: XCMLGRVYRPC (N-terminal acetyl; D-Asn at position 6; C-terminal amide; disulfide cycle) [SEQ. ID. NO. 10 (Ac-D-Asn^6 analog of Ac-hMCH(6-16)-NH2)]
-- reply 113%

-- ask Provide Activation %, aequorin bioluminescence value for the following binder: Ac-RCMLGRVYRPC-NH2 (disulfide 2-11 (inferred), also called ID; NO; parent compound) [Ac-hMCH(6-16)-NH2]
-- reply 99%

-- ask Provide Activation %, aequorin bioluminescence value for the following binder: XCMLGRVYRPC (HELM PEPTIDE1{[ac].[dA].C.M.L.G.R.V.Y.R.P.C.[am]}$PEPTIDE1,PEPTIDE1,3:R3-12:R3$$$V2.0; SMILES CSCC[C@@H]1NC(=O)[C@@H](NC(=O)[C@@H](C)NC(C)=O)CSSC[C@@H](C(N)=O)NC(=O)[C@@H]2CCCN2C(=O)[C@H](CCCNC(=N)N)NC(=O)[C@H](Cc2ccc(O)cc2)NC(=O)[C@H](C(C)C)NC(=O)[C@H](CCCNC(=N)N)NC(=O)CNC(=O)[C@H](CC(C)C)NC1=O) [SEQ. ID. NO. 6 (Ac-D-Ala^6 analog of Ac-hMCH(6-16)-NH2)]
-- reply 109%

-- ask Provide Activation %, aequorin bioluminescence value for the following binder: XCMLGRVYRPC (D-Arg at position 6, no acetyl; C-terminal amide; disulfide cycle) [SEQ. ID. NO. 4 (D-Arg^6 analog lacking an Ac group)]
-- reply 130%

-- ask Provide Activation %, aequorin bioluminescence value for the following binder: DFDMLRCMLGRVYRPCWQV (disulfide 7-16 (inferred)) [human MCH]
-- reply 100%

-- ask Provide Activation %, aequorin bioluminescence value for the following binder: XCMLGRVYRPC (N-terminal acetyl; D-Ser at position 6; C-terminal amide; disulfide cycle) [SEQ. ID. NO. 11 (Ac-D-Ser^6 analog of Ac-hMCH(6-16)-NH2)]
-- reply 114%

-- ask Provide Activation %, aequorin bioluminescence value for the following binder: XMLGRVYRPC (Ac-Arg^6 segment eliminated; Mpr, des-amino-cysteine (3-mercaptopropionic acid) at position 7 instead of Cys; C-terminal amide; disulfide ring) [SEQ. ID. NO. 15 (Δ(X^6-Cys^7), Mpr^7 analog of Ac-hMCH(6-16)-NH2)]
-- reply 92%

-- ask Provide Activation %, aequorin bioluminescence value for the following binder: XCMLGRVYRPC (N-terminal acetyl; D-Pro at position 6; C-terminal amide; disulfide cycle) [SEQ. ID. NO. 8 (Ac-D-Pro^6 analog of Ac-hMCH(6-16)-NH2)]
-- reply 120%

-- ask Provide Activation %, aequorin bioluminescence value for the following binder: XCMLGRVYRPC (N-terminal acetyl; D-Arg at position 6; C-terminal amide; disulfide cycle) [SEQ. ID. NO. 5 (Ac-D-Arg^6 analog of Ac-hMCH(6-16)-NH2)]
-- reply 97%

-- ask Provide Activation %, aequorin bioluminescence value for the following binder: XCMLGRVYRPC (HELM PEPTIDE1{[ac].[dF].C.M.L.G.R.V.Y.R.P.C.[am]}$PEPTIDE1,PEPTIDE1,3:R3-12:R3$$$V2.0; SMILES CSCC[C@@H]1NC(=O)[C@@H](NC(=O)[C@@H](Cc2ccccc2)NC(C)=O)CSSC[C@@H](C(N)=O)NC(=O)[C@@H]2CCCN2C(=O)[C@H](CCCNC(=N)N)NC(=O)[C@H](Cc2ccc(O)cc2)NC(=O)[C@H](C(C)C)NC(=O)[C@H](CCCNC(=N)N)NC(=O)CNC(=O)[C@H](CC(C)C)NC1=O) [SEQ. ID. NO. 9 (Ac-D-Phe^6 analog of Ac-hMCH(6-16)-NH2)]
-- reply 117%

-- ask Provide Activation %, aequorin bioluminescence value for the following binder: XCMLGRVYRPC (N-terminal acetyl; D-Cit (D-citrulline) at position 6; C-terminal amide; disulfide cycle) [SEQ. ID. NO. 14 (Ac-D-Cit^6 analog of Ac-hMCH(6-16)-NH2)]
-- reply 91%

-- ask Provide Activation %, aequorin bioluminescence value for the following binder: XCMLGRVYRPC (N-terminal acetyl; D-Nle (D-norleucine) at position 6; C-terminal amide; disulfide cycle) [SEQ. ID. NO. 7 (Ac-D-Nle^6 analog of Ac-hMCH(6-16)-NH2)]
-- reply 115%

-- ask Provide Activation %, aequorin bioluminescence value for the following binder: XCMLGRVYRPC (HELM PEPTIDE1{[ac].[dK].C.M.L.G.R.V.Y.R.P.C.[am]}$PEPTIDE1,PEPTIDE1,3:R3-12:R3$$$V2.0; SMILES CSCC[C@@H]1NC(=O)[C@@H](NC(=O)[C@@H](CCCCN)NC(C)=O)CSSC[C@@H](C(N)=O)NC(=O)[C@@H]2CCCN2C(=O)[C@H](CCCNC(=N)N)NC(=O)[C@H](Cc2ccc(O)cc2)NC(=O)[C@H](C(C)C)NC(=O)[C@H](CCCNC(=N)N)NC(=O)CNC(=O)[C@H](CC(C)C)NC1=O) [SEQ. ID. NO. 13 (Ac-D-Lys^6 analog of Ac-hMCH(6-16)-NH2)]
-- reply 130%
